B1: Subtilisin-chymotrypsin inhibitor-2A, P01053 (parent)
chain: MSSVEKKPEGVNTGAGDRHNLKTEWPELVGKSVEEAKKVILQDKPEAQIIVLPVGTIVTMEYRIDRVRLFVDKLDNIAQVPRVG

Variants of: B1
Conditions: Hordeum vulgare; pH 6.3; Thermal; Fluorescence; phosphate 10 mM; reversible: yes; structure 2CI2; whole UniProt chain shown
Recorded metric: change of melting temperature, mutant - wild type (higher = more stable) (°C)
One number for each entry, in °C.

Required: change of melting temperature, mutant - wild type (higher = more stable), one value per variant below.
1. K38A
2. L28A
3. E34N
4. K38G
5. F70L
6. V39A
7. S32A

### Response
1. -5.2
2. -22.5
3. -3.8
4. -10.8
5. -14.1
6. -4.7
7. -8.4
